- assayExplanation: [11C]GSK1034702 PET brain distribution and kinetics in anaesthetised baboons
- Assay type: in vivo, Papio anubis
- conditionSummary: male, baboon (Papio anubis), occipital cortex, intravenous, Occipital Ctx; Subject B Exam 1; baboon; read-out: Regional V T
reportedEndpoint: Kp
Please give the numeric answer without any surrounding text.

Suppose we examine the compound [11CH3]c1cc(F)c2[nH]c(=O)n(C3CCN(C4CCOCC4)CC3)c2c1 [[^11C]GSK1034702] ; what Kp value has been reported?
3.89

----------
- assayExplanation: [11C]GSK1034702 PET brain distribution and kinetics in anaesthetised baboons
- Type: in vivo, Papio anubis
- conditionSummary: female, baboon (Papio anubis), occipital cortex, intravenous, Occipital Ctx; Subject A Exam 2; baboon; read-out: Regional V T
reportedEndpoint: Kp
Please give the numeric answer without any surrounding text.

Suppose we examine the molecule [11CH3]c1cc(F)c2[nH]c(=O)n(C3CCN(C4CCOCC4)CC3)c2c1 [[^11C]GSK1034702] ; what Kp value has been reported?
4.64
